Catalogue of compounds with associated %Inh
test system: SNRK; conditions: concentration: 1 μM, replicates: in singlicate; n = 1;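 note: KINOMEscan kinase panel screen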
Hi! Could you send only the number? It should be in %, unit omitted.

Study these solved cases before continuing.
{"columns": ["smiles.data", "tested.on", "%Inh [%]"],
 "data": [
  ["COc1cccc(CC(=O)N2CCc3cc(-c4cn(C)c5ncnc(N)c45)ccc32)c1", "SNRK", 0],
  ["Cc1ccc(Nc2ccnc(Nc3ccc(C)c(F)c3)n2)cc1O.Cl", "SNRK", 0]
]}

Okay, now this compound:
[Q] Consider the compound shown here: `Cc1ccc(O)cc1Nc1ccnc2cc(-c3ccc(CN4CCCCC4)o3)ccc12` What is its recorded %Inh?
[A] 0

###

system: SRMS; details: concentration: 1 μM, replicates: in singlicate; n = 1
measurement.type: %Inh (%)
Hi! Could you send only the number? It should be in %, unit omitted.

{"columns": ["molecule", "%Inh (%)"],
 "data": [
  ["Cc1ccc(NC(=O)c2ccc(Cl)c(Cl)c2)cc1-c1ccc(C(=O)Nc2ccncc2)cc1", 0],
  ["COc1cccc(C2=C(Nc3cccc(O)c3)C(=O)NC2=O)c1", 0],
  ["CN1CCN(Cc2ccc(NC(=O)Nc3ccc(N(C)c4ccnc(Nc5ccc(CS(C)(=O)=O)cc5)n4)cc3)cc2)CC1.Cl", 0],
  ["CC(C)c1nc(-c2cccc(NS(=O)(=O)c3c(F)cccc3F)c2)c(-c2ccnc(Nc3ccc(N4CCOCC4)nc3)n2)s1.Cl", 99.7],
  ["CN(C)CCNS(=O)(=O)c1ccc(-c2ccnc3[nH]ccc23)cc1", 0]
]}

[Q] Consider the molecule shown here: `N#Cc1cnc2cc(-c3cnc(CNCCN4CCOCC4)s3)ccc2c1Nc1ccc(Oc2ccccc2)cc1` What is its recorded %Inh?
[A] 95.9

[Q] Consider the molecule shown here: `O=C(O)C(F)(F)F.O=c1[nH]ccc2nc(N[C@@H]3CCNC3)nc(Nc3cc(Cl)cc(Cl)c3)c12` What is its recorded %Inh?
[A] 3

[Q] Consider the molecule shown here: `Cn1cc(-c2cnc(N)c3c(-c4ccc5c(c4)CCN5C(=O)Cc4ccccc4)csc23)cn1` What is its recorded %Inh?
[A] 55

###

system: YANK1; construct: gene STK32A; settings: concentration: 1 μM, replicates: in singlicate; n = 1
measurement.type: %Inh (%)
Hi! Could you send only the number? It should be in %, unit omitted.

Study these solved cases before continuing.
{"columns": ["molecule", "tested.on", "recorded.value"],
 "data": [
  ["COc1cccc2c(-c3ccncc3)c(-c3ccc(F)cc3)nn12", "YANK1", 65],
  ["CSc1ccc(NC2=C(c3ccc(Cl)cc3)C(=O)NC2=O)cc1", "YANK1", 0],
  ["Nc1ncnc2scc(-c3ccc(NC(=O)Cc4cc(F)ccc4F)cc3)c12.O=C(O)C(F)(F)F", "YANK1", 89],
  ["CS(=O)(=O)c1cccc(CNc2nc(Nc3ccc4c(c3)CCC(=O)N4)ncc2C(F)(F)F)c1", "YANK1", 0],
  ["O=C(O)C(F)(F)F.O=c1[nH]ccc2nc(N[C@@H]3CCNC3)nc(Nc3ccc4c(c3)S(=O)(=O)CC4)c12", "YANK1", 70],
  ["Cc1ccc(C)c(NC(=O)Nc2ccc(C)c(-c3ccc(C(=O)Nc4ccncc4)cc3)c2)c1", "YANK1", 7],
  ["COC(=O)Nc1nc2cc(Oc3ccc(NC(=O)Nc4cccc(SC)c4)cc3)ccc2[nH]1.Cl", "YANK1", 14],
  ["NCCC(NC(=O)c1cc(Br)c(-c2ccnc3[nH]ccc23)s1)c1ccccc1.O=C(O)C(F)(F)F.O=C(O)C(F)(F)F (centres unmarked)", "YANK1", 10],
  ["CCn1cnc2c(NCc3ccccc3)ncnc21", "YANK1", 0],
  ["CN(c1ccc(NC(=O)Nc2cccc(Cl)c2)cc1)c1ccnc(N)n1.Cl", "YANK1", 0]
]}

[Q] Consider the molecule shown here: `Nc1ncc(-c2ccc3nccc(-c4ccncc4)c3c2)cc1S(=O)(=O)N1CCCCC1` What is its recorded %Inh?
[A] 5

[Q] Consider the molecule shown here: `COc1ccc(NC(=O)c2ccoc2)cc1-c1ccc(C(=O)NCC2CC2)cc1` What is its recorded %Inh?
[A] 0

[Q] Consider the molecule shown here: `CN(c1ccc(NC(=O)N2CCN(CCCN3CCOCC3)CC2)cc1)c1ccnc(Nc2ccc(CS(C)(=O)=O)cc2)n1.Cl` What is its recorded %Inh?
[A] 0

[Q] Consider the molecule shown here: `O=C(Nc1n[nH]c2nc(-c3ccccc3)ccc12)C1CC1` What is its recorded %Inh?
[A] 0
